target or test system: PDZ protein (GST-PDZ fusion) (Homo sapiens, UniProt Q6P0Q8)
Construct: made in house; host or cells: E. coli (DH5alpha, BL21 or JM109)
Sequence (Q6P0Q8 whole entry, the tested form may be a part): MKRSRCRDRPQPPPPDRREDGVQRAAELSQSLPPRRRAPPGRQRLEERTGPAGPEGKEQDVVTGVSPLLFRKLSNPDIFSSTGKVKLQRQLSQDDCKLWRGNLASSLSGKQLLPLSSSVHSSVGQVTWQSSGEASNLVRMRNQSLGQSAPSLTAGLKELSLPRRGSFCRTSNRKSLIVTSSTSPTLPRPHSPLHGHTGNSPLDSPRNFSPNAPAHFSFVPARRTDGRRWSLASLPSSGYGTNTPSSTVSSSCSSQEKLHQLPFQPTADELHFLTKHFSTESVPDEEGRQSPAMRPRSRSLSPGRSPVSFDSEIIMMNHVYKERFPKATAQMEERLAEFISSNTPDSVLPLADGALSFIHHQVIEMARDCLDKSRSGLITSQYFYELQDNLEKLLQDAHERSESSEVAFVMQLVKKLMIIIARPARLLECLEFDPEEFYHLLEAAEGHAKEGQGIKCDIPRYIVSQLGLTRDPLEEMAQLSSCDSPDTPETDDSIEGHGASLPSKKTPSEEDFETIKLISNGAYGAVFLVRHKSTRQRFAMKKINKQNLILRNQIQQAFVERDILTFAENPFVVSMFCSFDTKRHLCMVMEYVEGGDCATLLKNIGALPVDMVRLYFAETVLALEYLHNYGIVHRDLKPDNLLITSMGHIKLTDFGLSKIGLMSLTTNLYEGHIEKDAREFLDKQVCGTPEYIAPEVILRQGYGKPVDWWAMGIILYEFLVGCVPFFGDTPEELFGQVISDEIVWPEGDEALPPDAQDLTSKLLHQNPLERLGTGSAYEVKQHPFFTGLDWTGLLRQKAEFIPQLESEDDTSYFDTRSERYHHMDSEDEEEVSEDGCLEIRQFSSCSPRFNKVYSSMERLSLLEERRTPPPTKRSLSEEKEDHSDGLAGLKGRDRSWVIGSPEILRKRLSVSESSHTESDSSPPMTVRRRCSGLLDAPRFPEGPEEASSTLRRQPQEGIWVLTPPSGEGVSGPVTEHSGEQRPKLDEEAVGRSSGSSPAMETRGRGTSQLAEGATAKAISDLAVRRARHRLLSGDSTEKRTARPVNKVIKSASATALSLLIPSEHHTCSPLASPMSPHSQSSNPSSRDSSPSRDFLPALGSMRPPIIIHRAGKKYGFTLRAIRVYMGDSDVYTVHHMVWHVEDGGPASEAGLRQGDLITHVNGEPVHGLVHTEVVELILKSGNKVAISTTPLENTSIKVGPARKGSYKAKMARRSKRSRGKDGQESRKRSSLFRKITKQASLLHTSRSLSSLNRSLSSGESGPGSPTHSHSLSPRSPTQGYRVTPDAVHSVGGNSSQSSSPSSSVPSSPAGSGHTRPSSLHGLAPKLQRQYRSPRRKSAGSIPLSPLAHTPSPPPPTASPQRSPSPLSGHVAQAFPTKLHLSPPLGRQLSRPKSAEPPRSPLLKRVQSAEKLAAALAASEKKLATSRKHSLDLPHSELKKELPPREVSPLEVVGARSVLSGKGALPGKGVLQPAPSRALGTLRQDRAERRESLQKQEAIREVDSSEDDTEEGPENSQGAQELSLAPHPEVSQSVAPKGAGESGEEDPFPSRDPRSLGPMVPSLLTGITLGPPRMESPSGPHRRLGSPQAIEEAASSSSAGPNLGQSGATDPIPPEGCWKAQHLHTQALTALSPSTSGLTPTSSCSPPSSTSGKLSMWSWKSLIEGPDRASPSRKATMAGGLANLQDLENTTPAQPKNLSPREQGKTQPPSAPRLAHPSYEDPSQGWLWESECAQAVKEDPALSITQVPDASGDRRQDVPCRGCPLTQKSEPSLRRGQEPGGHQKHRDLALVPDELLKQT
assay explanation: G' assay (10 uM PL peptide), results of TABLE 7 and TABLE 12
Assay type: binding
experimental parameters: PDZ KIAA807
Ends that are not written are not given here. * marks the point of attachment. Biotin = O=C1N[C@H]2[C@H](CS[C@H]2CCCCC(=O)*)N1
measured quantity: Classification

NGGFAVDKSDTISFTQTSQF [glutamate transporter 3] | 1 (A450 nm 0-1)
DAKLKSDGTIAAITEKETHF (Biotin-DAKLKSDGTIAAITEKETHF) [GABA transporter 3] | 1 (A450 nm 0-1)
GTSDMKDLVGNIEQNEHSVI [Mannose Receptor] | 1 (A450 nm 0-1)
A2AB_HUMAN (modified) (Biotin-QDFRRAFRRILARPWTQTAW; not fully specified) | 4 (A450 nm 3-4)

Moving on to the next substance.
Incoming: What value of measured Classification is listed for SSR4_HUMAN (EALQPEPGRKRIPLTRTTTF) ?
Outgoing: 1 (A450 nm 0-1)

Provenance of the data: patent US20050282743A1
